target: T1, CD137-hisFc fusion protein (Sino Biological Cat 10041-H03H) (human, UniProt Q07011 24-186); assay: BLI Octet, Fab;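 further: fab fragments expressed in E. coli, binding to human CD137 measured on Octet RED96, kinetics fitted with a 1:1 Langmuir model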
T1 construct: Bought; also called recombinant human CD137 (fused with human Fc and His tag); not shown: His tag and human Fc
measured.endpoint: kon (M⁻¹ s⁻¹)
Give the value in M⁻¹ s⁻¹ but do not write M⁻¹ s⁻¹ after it.

>  <binder>
Fab 5404 (Fab, V domains shown, Fab from E. coli; also called VH34/VL34) VH: EVQLVESGGGLVQPGGSLRLSCAASGYSISSGYHWAWIRQAPGKGLEWIGEIYHSGSTYYSPSLKSRVTISRDNSKNTLYLQLNSLRAEDTAVYYCARSPYYYGVFDYWGQGTLVTVSS VL: DIQLTQSPSSLSASVGDRVTITCSASSRVGSVYWYQQKPGKAPKLLIYDASNLETGVPSRFSGSGSGTDFTLTISSLQPEDFATYYCQQYTHDPVTFGQGTKVEIKR

>  <kon (M⁻¹ s⁻¹)>
400000

$$$$

// below: kon requested for another binder
Exercise: What value of measured kon is listed for Fab 5370 (Fab, V domains shown, Fab from E. coli; also called VH32/VL32) VH: EVQLVESGGGLVQPGGSLRLSCAASGFSLSTSGVAVAWIRQAPGKGLEWLALIDWDDDKRYSTSLKSRLTISRDNSKNTLYLQLNSLRAEDTAVYYCAREGSTTVVGDWFDYWGQGTLVTVSS VL: DIQLTQSPSSLSASVGDRVTITCRASQGIGTYLAWYQQKPGKAPKLLIYDASNRATGIPSRFSGSGSGTDFTLTISSLQPEDFATYYCQQGYSLWTFGQGTKVEIKR ?
Key: 520000
